The reported numbers originate from ChEMBL document CHEMBL4393722.

# Test system: MCF7
# experiment-summary: Cytotoxicity against human MCF7 cells assessed as reduction in cell viability incubated for 24 hrs by MTT assay
# Type: cell-based
# condition-info: MCF7, 24 h
readout-label: IC50

Given the entry CCN(C)C(=O)Oc1cc(C(C)N(C)C)cc2cccnc12 (stereo unspecified) , report its measured IC50. > 20 µM

---

# experiment-summary: MRT in Sprague-Dawley rat blood dialysis at 25 mg/kg, iv by HPLC analysis
# Assay type: ADME, organism-based
# condition-info: blood dialysate
readout-label: MRT (h)
Note: unit h is implicit; provide only the numeric part.

Param item = CCN(C)C(=O)Oc1cc(C(C)N(C)C)cc2cccnc12 (stereo unspecified) ; retrieve measured MRT. 1.16
